test system: MYB; experiment: HiBiT protein abundance assay, MYB; assay type: cell-based, human; settings: Homo sapiens, K562, 24 h, Table 13B, modified K562 cells
pIC50: −log10 of the molar value.
reported_metric: pIC50

Task item: # query: pIC50 of entry COc1nc(-c2ccc(O[C@@H]3C[C@H]4CC[C@@H](C3)N4)nn2)ccc1-c1cnc(C)s1 [Compound 962]
Reply: 6.00 to 7.00

Task item: What measured pIC50 goes with COc1nc(-c2ccc(N(C)C3CC(C)(C)NC(C)(C)C3)nn2)ccc1-c1cnn(C)n1 [Compound 927] ?
Reply: 6.00 to 7.00

Task item: Suppose we examine the compound CCOc1nc(-c2ccc(N(C)[C@@H]3C[C@H]4CC[C@@H](C3)N4)nn2)ccc1-c1cn[nH]c1 [Compound 929] ; what pIC50 value has been reported?
Reply: > 7.00

Task item: What value of measured pIC50 is listed for COc1nc(-c2ccc(NC3CCNCC3)nc2)ccc1-c1cnn(C)c1 [Compound 986] ?
Reply: 5.00 to 6.00

Task item: # input compound: C[C@@H]1C[C@H](N(C)c2ccc(-c3ccc(-c4cn[nH]c4)c(=O)[nH]3)nn2)CCN1 [Compound 901] ; wanted: its pIC50
Reply: < 5.00

Task item: Please report the recorded pIC50 for COc1nc(-c2ccc(N(C)[C@@H]3C[C@H]4CC[C@@H](C3)N4)nn2)cnc1-c1cn[nH]c1 [Compound 928] .
Reply: 6.00 to 7.00

Task item: Bench note: what pIC50 did CN(c1ccc(-c2ccc(-n3cccn3)c(=O)[nH]2)nn1)[C@@H]1C[C@H]2CC[C@@H](C1)N2 [Compound 905] show?
Reply: 5.00 to 6.00

Task item: # query: pIC50 of entry COc1nc(-c2ccc(N(C)[C@@H]3C[C@H]4CC[C@@H](C3)N4)nn2)ccc1-c1cnnc(C)c1 [Compound 960]
Reply: 5.00 to 6.00

Task item: Could you tell me which pIC50 is on file for COc1nc(-c2ccc(N(C)[C@@H]3C[C@H]4CC[C@@H](C3)N4)nc2)ccc1-c1cn[nH]c1 [Compound 979] ?
Reply: 6.00 to 7.00

Task item: Quick one: pIC50 of COc1cc(-c2ccc(-c3ccc(N(C)[C@@H]4C[C@H]5CC[C@@H](C4)N5)nn3)nc2OC)ncn1 [Compound 954] ?
Reply: 5.00 to 6.00

Task item: Sample COc1nc(-c2ccc(OC3CC(C)(C)NC(C)(C)C3)nn2)cc(F)c1-c1cn[nH]c1 [Compound 965] — what was its pIC50?
Reply: 6.00 to 7.00

Task item: Could you share which pIC50 value was measured for COc1nc(-c2ccc(OC3CC(C)(C)NC(C)(C)C3)nn2)cnc1-c1cn[nH]c1 [Compound 999] ?
Reply: 5.00 to 6.00

Task item: Look at this compound and give its reported pIC50. COc1nc(-c2ccc(OC3CC(C)(C)NC(C)(C)C3)nn2)ccc1-c1cnn(C)c1 [Compound 918]
Reply: 6.00 to 7.00

Task item: Item under review: COc1nc(-c2ccc(NC3CCNCC3)nn2)ccc1-c1cn[nH]c1 [Compound 924] . Reported pIC50?
Reply: 5.00 to 6.00

Task item: What does the record list as pIC50 for COc1nc(-c2ccc(NC3CCNCC3)nn2)ccc1-c1cnn(C)c1 [Compound 925] ?
Reply: 5.00 to 6.00

Task item: Can you look up the measured pIC50 of COc1nc(-c2ccc(NC3CCNCC3)nn2)ccc1-c1cnn(C)n1 [Compound 933] for me?
Reply: 5.00 to 6.00
